Below, each entry is listed alongside its reported Activity.
# tgt: Protein cereblon/Son of sevenless homolog 1 (Homo sapiens, UniProt Q07889+Q96SW2)
# Sequence (Q07889 whole entry, looked up): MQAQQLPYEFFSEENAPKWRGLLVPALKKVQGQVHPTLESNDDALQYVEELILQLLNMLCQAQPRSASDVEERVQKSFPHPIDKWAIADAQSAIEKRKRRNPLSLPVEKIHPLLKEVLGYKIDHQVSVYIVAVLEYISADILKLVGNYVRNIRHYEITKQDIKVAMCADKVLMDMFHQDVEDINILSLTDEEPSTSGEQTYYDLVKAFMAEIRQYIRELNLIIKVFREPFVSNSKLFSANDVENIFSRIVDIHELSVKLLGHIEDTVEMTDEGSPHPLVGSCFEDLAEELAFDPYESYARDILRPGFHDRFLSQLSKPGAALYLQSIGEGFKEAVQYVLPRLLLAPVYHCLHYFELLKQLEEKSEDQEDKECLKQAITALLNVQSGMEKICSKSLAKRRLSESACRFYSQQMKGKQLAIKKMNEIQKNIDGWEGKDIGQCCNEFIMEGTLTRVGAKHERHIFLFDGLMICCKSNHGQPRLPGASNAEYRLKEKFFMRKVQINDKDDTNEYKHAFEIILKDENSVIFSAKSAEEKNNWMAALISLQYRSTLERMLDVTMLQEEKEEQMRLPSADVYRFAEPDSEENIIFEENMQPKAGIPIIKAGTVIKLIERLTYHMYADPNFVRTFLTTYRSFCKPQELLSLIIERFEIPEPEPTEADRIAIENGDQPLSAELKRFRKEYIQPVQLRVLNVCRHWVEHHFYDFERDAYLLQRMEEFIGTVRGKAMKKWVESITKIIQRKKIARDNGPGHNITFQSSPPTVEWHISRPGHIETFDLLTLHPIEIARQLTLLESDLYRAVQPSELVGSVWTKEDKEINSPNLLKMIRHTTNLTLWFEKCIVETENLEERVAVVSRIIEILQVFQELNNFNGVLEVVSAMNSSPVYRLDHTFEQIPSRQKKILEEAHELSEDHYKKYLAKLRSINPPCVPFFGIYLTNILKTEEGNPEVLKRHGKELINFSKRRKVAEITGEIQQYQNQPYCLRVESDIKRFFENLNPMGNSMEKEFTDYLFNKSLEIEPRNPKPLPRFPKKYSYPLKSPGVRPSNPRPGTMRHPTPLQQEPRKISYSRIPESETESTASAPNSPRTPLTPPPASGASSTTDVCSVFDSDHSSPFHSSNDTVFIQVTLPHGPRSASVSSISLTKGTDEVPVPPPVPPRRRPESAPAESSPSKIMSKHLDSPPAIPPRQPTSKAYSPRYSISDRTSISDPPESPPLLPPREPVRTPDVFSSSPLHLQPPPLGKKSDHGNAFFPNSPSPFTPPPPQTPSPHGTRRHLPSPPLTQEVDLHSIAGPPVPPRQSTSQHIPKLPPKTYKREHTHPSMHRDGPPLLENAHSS
# Sequence (Q96SW2 whole entry, looked up): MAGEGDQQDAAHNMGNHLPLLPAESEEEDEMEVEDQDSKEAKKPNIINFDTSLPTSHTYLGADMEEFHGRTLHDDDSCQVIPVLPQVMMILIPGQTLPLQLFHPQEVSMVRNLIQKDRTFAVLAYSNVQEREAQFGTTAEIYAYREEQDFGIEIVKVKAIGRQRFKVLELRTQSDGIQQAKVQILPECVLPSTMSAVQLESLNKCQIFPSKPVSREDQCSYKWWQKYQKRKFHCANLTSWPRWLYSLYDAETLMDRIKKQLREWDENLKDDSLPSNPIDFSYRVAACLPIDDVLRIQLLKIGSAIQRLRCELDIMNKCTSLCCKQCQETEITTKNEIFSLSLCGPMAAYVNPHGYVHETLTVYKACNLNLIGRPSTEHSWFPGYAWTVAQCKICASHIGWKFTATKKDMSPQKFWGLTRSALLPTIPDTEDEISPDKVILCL
# method: PROTAC activity at CRBN/SOS1 in human A549 cells assessed as protein degradation at 0.1 uM incubated for 24 hrs by immunoblot analysis relative to control
# Type: cell-based
Report as a plain number; the unit % is understood.

Solved entries (count: 5):
molecule	Activity / %
COc1cc2nc(C)nc(N[C@H](C)c3cc(N)cc(C(F)(F)F)c3)c2cc1O[C@H]1CCN(C(=O)CCCCC(=O)Nc2ccc3c(c2)C(=O)N(C2CCC(=O)NC2=O)C3)C1 (stereo not given in full)	2.7
COc1cc2nc(C)nc(N[C@H](C)c3cc(N)cc(C(F)(F)F)c3)c2cc1O[C@H]1CCN(C(=O)CCC(=O)Nc2ccc3c(c2)CN(C2CCC(=O)NC2=O)C3=O)C1 (stereo not given in full)	0
COc1cc2nc(C)nc(N[C@H](C)c3cc(N)cc(C(F)(F)F)c3)c2cc1O[C@H]1CCN(C(=O)CCCCCCC(=O)Nc2cccc3c2C(=O)N(C2CCC(=O)NC2=O)C3)C1 (stereo not given in full)	2.6
COc1cc2nc(C)nc(N[C@H](C)c3cc(N)cc(C(F)(F)F)c3)c2cc1O[C@H]1CCN(C(=O)CCCCCCCNc2cccc3c2C(=O)N(C2CCC(=O)NC2=O)C3=O)C1 (stereo not given in full)	15.3
COc1cc2nc(C)nc(N[C@H](C)c3cc(N)cc(C(F)(F)F)c3)c2cc1O[C@H]1CCN(C(=O)CCCCCNc2cccc3c2C(=O)N(C2CCC(=O)NC2=O)C3=O)C1 (stereo not given in full)	14.3

q: Which Activity is listed for COc1cc2nc(C)nc(N[C@H](C)c3cc(N)cc(C(F)(F)F)c3)c2cc1O[C@H]1CCN(C(=O)CCCCCCCNc2ccc3c(c2)C(=O)N(C2CCC(=O)NC2=O)C3=O)C1 (stereo not given in full) ?
a: 6.6

q: Try COc1cc2nc(C)nc(N[C@H](C)c3cc(N)cc(C(F)(F)F)c3)c2cc1O[C@H]1CCN(C(=O)CCCCCCCCC(=O)Nc2cccc3c2CN(C2CCC(=O)NC2=O)C3=O)C1 (stereo not given in full) next.
a: 11.4

q: Next entry: COc1cc2nc(C)nc(N[C@H](C)c3cc(N)cc(C(F)(F)F)c3)c2cc1O[C@H]1CCN(C(=O)CC(=O)Nc2cccc3c2C(=O)N(C2CCC(=O)NC2=O)C3)C1 (stereo not given in full)
a: 0

q: Field entry: COc1cc2nc(C)nc(N[C@H](C)c3cc(N)cc(C(F)(F)F)c3)c2cc1O[C@H]1CCN(C(=O)CCCCCNc2ccc3c(c2)C(=O)N(C2CCC(=O)NC2=O)C3=O)C1 (stereo not given in full)
a: 5.6

q: Also, COc1cc2nc(C)nc(N[C@H](C)c3cc(N)cc(C(F)(F)F)c3)c2cc1O[C@H]1CCN(C(=O)CC(=O)Nc2ccc3c(c2)C(=O)N(C2CCC(=O)NC2=O)C3)C1 (stereo not given in full) please.
a: 8.5

q: And COc1cc2nc(C)nc(N[C@H](C)c3cc(N)cc(C(F)(F)F)c3)c2cc1O[C@H]1CCN(C(=O)CC(=O)Nc2cccc3c2CN(C2CCC(=O)NC2=O)C3=O)C1 (stereo not given in full) ?
a: 1

q: Follow-up item: COc1cc2nc(C)nc(N[C@H](C)c3cc(N)cc(C(F)(F)F)c3)c2cc1O[C@H]1CCN(C(=O)CCCNc2ccc3c(c2)C(=O)N(C2CCC(=O)NC2=O)C3=O)C1 (stereo not given in full)
a: 4

q: Next: COc1cc2nc(C)nc(N[C@H](C)c3cc(N)cc(C(F)(F)F)c3)c2cc1O[C@H]1CCN(C(=O)CCCCCCC(=O)Nc2ccc3c(c2)CN(C2CCC(=O)NC2=O)C3=O)C1 (stereo not given in full)
a: 3.9

q: Follow-up item: COc1cc2nc(C)nc(N[C@H](C)c3cc(N)cc(C(F)(F)F)c3)c2cc1O[C@H]1CCN(C(=O)CCCCC(=O)Nc2ccc3c(c2)CN(C2CCC(=O)NC2=O)C3=O)C1 (stereo not given in full)
a: 7.1

q: Would you mind doing COc1cc2nc(C)nc(N[C@H](C)c3cc(N)cc(C(F)(F)F)c3)c2cc1O[C@H]1CCN(C(=O)CCCCCCCCC(=O)Nc2ccc3c(c2)C(=O)N(C2CCC(=O)NC2=O)C3)C1 (stereo not given in full) as well?
a: 0

Taken from ChEMBL document CHEMBL5550100.
